The values you see were collected from patent EP4786492A1.

target: DLL3 endogenously expressed on NCI-H82 cells (UniProt Q9NYJ7); assay: FACS on NCI-H82 cells; antibody 4 nM
Sequence (Q9NYJ7 27-618): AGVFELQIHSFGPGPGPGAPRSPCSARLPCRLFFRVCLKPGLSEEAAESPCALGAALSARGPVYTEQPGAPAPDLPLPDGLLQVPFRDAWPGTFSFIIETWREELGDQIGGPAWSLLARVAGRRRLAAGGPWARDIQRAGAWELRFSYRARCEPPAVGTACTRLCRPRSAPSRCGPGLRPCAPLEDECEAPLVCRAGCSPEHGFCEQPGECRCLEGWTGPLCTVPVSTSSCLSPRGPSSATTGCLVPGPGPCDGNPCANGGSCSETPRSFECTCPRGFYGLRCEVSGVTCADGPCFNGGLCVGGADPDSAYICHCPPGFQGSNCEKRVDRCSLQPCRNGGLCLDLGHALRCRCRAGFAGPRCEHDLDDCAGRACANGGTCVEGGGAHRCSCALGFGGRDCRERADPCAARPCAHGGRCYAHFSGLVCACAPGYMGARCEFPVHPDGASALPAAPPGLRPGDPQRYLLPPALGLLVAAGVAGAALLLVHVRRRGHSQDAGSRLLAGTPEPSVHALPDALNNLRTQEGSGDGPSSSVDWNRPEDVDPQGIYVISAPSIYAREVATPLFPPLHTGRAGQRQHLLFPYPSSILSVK
recorded metric: MFI
// no unit string in output, number only

Examples from the recorded data:
>>> measurement("mab006 scFv-hFc (Fc fusion, part only; not given: linker and human IgG1 Fc, not shown: a dimerising Fc or GST) chain, part: DVQITQSPSYLAASPGETITINCRATKSISKYLAWYQEKPGKTNKLLIFSGSTLQSGIPSRFRGSGSGTDFTLTISSLEPEDFAMYYCQQHHEYPYTFGGGTKLEIKQVQLQQPGAELVRPGTSVKLSCKASGYTFTSYWMHWVRQRPGQGLEWIGVIDPSDSLANYNQEFKGKATLTVDTSSSTAYMQLSSLTSEDSAVYYCARDSTVVAPMDYWGQGTSVTVSS")
457
>>> measurement("Hab008L1H2a-hFc (scFv, part only; not given: VL-VH linker and human IgG1 Fc, V domains shown, not shown: another chain or arm of the molecule; a dimerising Fc or GST; small tags and cut ends) VL: DIQMTQSPSSLSASVGDRVTITCKASQNVGTAVAWYQQKPGKSPKLLIFSASIRYTGVPSRFSGSGSGTDFTLTISSLQPEDFATYYCQQYSSSPYTFGGGTKVEIK VH: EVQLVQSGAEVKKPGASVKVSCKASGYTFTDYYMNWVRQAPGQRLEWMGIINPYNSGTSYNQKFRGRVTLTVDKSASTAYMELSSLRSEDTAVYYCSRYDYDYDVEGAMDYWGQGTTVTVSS")
440
>>> measurement("Hab013VL2VH2a-hFc (scFv, part only; not given: scFv linker and human IgG1 Fc, V domains shown, not shown: another chain or arm of the molecule; a dimerising Fc or GST; small tags and cut ends) VL: EIVLTQSPATLSLSPGERATLSCRASKSVSTSGFSYMHWYQQKPGQPPRLLIYLASNLESGIPARFSGSGSGTDFTLTISSLEPEDFAVYYCQHSRELPFTFGQGTKLEIK VH: EVQLVQSGAEVKKPGSSVKVSCKASGYAFSNYWINWVRQAPGQGLEWMGQINPGDGDTIYNSKFKGRVTITADKSTSTAYMELSSLRSEDTAVYYCEREGRNYGDFAYWGQGTTVTVSS")
1030
>>> measurement("Hab008L3H5-hFc (scFv, part only; not given: scFv linker and human IgG1 Fc, V domains shown, not shown: another chain or arm of the molecule; a dimerising Fc or GST; small tags and cut ends) VL: DIVMTQSPDSLAVSLGERATINCKASQNVGTAVAWYQQKPGQSPKLLIFSASIRYTGVPDRFSGSGSGTDFTLTISSLQAEDVAVYYCQQYSSSPYTFGGGTKVEIK VH: EVQLVQSGAEVKKPGASVKVSCKASGYTFTDYYMNWVRRAPGQRLEWMGIINPYNGGTSYNQKFRGRVTITVDKSASTAYMELSSLRSEDTAVYYCSRYDYDYDVEGAMDYWGQGTTVTVSS")
388

Below: the item to evaluate.
Incoming: Specify measured MFI for mab014 scFv-hFc (Fc fusion, part only; not given: Linker and human IgG1 Fc, not shown: a dimerising Fc or GST) chain, part: DIQMTQSSSSFSVSLGDRVTITCKASEDIYNRLAWYQQKPGNTPRLLISGATSLETGVPSRFSGSGSGKDFTLSITSLQTEDVATYYCQQYWSLPWTFGGGTKLEIKEVQLHQSGPELVKPGTSVKISCKASGYTFTDYYMNWVKQSHGKSLEWIGDINPNHGDTGYNQKFTGKATLTVDKSSSTAYMELRSLTSEDSAVYYCARNFFYYGTTYGWYFDVWGTGTTVTVSS .
Outgoing: 702
